target: Histamine H3 receptor (Homo sapiens, UniProt Q9Y5N1); test: Displacement of [3H]N-alpha-methylhistamine from human histamine H3 receptor expressed in HEK cells by scintillation counting; assay type: cell-based, HEK293
Sequence (Q9Y5N1 whole entry): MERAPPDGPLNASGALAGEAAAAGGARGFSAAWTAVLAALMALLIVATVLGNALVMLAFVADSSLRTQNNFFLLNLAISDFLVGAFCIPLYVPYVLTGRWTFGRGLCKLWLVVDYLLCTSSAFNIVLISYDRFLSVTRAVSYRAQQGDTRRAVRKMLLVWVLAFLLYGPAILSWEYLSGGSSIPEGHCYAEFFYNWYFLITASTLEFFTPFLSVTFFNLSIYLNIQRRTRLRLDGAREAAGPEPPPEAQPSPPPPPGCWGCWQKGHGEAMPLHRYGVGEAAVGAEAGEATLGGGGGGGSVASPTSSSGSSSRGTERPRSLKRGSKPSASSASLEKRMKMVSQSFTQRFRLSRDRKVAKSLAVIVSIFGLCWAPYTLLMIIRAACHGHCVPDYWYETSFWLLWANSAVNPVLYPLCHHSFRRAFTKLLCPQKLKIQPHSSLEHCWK
pKi: −log10 of the molar value.

| COMPOUND | pKi |
| --- | --- |
| NC(=O)C1CCCN(CCCOc2ccc(-n3c(-c4ccccn4)nc4cc(F)ccc43)cc2)C1 (stereo unspecified) | 7.96 |
| Fc1ccc2c(c1)nc(-c1ccccn1)n2-c1ccc(OCCCN2CCCCCC2)cc1 | 8.28 |
| Fc1ccc2c(c1)nc(-c1ccccn1)n2-c1ccc(OCCCN2CCCC2)cc1 | 8.92 |
| CCSc1nc2cc(F)ccc2n1-c1ccc(OCCCN2CCCCC2)cc1 | 8.59 |
| OC1CCN(CCCOc2ccc(-n3c(-c4ccccn4)nc4cc(F)ccc43)cc2)CC1 | 8.74 |
| CCOc1nc2cc(F)ccc2n1-c1ccc(OCCCN2CCCCC2)cc1 | 7.82 |
| CN1CCCN(CCCOc2ccc(-n3c(-c4ccccn4)nc4cc(F)ccc43)cc2)CC1 | 8.44 |
| O=c1[nH]c2cc(F)ccc2n1-c1ccc(OCCCN2CCCCC2)cc1 | 8.06 |
| CC1CC(C)CN(CCCOc2ccc(-n3c(-c4ccccn4)nc4cc(F)ccc43)cc2)C1 (stereo unspecified) | 7.96 |
| COC(=O)C1CCN(CCCOc2ccc(-n3c(-c4ccccn4)nc4cc(F)ccc43)cc2)CC1 | 7.80 |
| Fc1ccc2c(c1)nc(-c1ccccn1)n2-c1ccc(OCCCN2CCCCC2)cc1 | 8.92 |
| Fc1ccc2c(c1)nc(-c1ccccn1)n2-c1ccc(OCCCN2CCc3ccccc3C2)cc1 | 6.97 |
| Fc1ccc2c(c1)[nH]c(=S)n2-c1ccc(OCCCN2CCCCC2)cc1 | 8.10 |
| Fc1ccc2c(c1)nc(-c1ccccn1)n2-c1ccc(OCCCN2Cc3cccc4cccc(c34)C2)cc1 | 6.15 |
| Fc1ccc2c(c1)nc(-c1ccccn1)n2-c1ccc(OCCCN2CCC(Cc3ccccc3)CC2)cc1 | 8.70 |
| C[C@@H]1CC[C@@H](C)N1CCCOc1ccc(-n2c(-c3ccccn3)nc3cc(F)ccc32)cc1 | 8.29 |
| CNCCCOc1ccc(-n2c(-c3ccccn3)nc3cc(F)ccc32)cc1 | 7.00 |
| Fc1ccc2c(c1)nc(-c1ccccn1)n2-c1ccc(OCCCN2CCSC2)cc1 | 7.70 |
| NC(=O)C1CCN(CCCOc2ccc(-n3c(-c4ccccn4)nc4cc(F)ccc43)cc2)CC1 | 7.70 |
| Fc1ccc2c(c1)nc(-c1ccccn1)n2-c1ccc(OCCCN2CCOCC2)cc1 | 8.47 |
| CN1CCN(CCCOc2ccc(-n3c(-c4ccccn4)nc4cc(F)ccc43)cc2)CC1 | 7.89 |

---

biological target: Histamine H3 receptor (Homo sapiens, UniProt Q9Y5N1); test: Antagonist activity at human histamine H3 receptor expressed in HEK293 cells assessed as reversal of N-alpha-methylhistamine-induced inhibition of forskolin-stimulated cAMP formation; type: functional, cell-based

| SMILES DATA | Ki / nM |
| --- | --- |
| Fc1ccc2c(c1)nc(-c1ccccn1)n2-c1ccc(OCCCN2CCCCC2)cc1 | 0.1 |

---

target: UniProt Q12809; test: Rubidium efflux through human ERG at 5 ug/mL pre-equilibrated for 30 mins by flame atomic absorbance spectroscopy
Sequence (Q12809 whole entry): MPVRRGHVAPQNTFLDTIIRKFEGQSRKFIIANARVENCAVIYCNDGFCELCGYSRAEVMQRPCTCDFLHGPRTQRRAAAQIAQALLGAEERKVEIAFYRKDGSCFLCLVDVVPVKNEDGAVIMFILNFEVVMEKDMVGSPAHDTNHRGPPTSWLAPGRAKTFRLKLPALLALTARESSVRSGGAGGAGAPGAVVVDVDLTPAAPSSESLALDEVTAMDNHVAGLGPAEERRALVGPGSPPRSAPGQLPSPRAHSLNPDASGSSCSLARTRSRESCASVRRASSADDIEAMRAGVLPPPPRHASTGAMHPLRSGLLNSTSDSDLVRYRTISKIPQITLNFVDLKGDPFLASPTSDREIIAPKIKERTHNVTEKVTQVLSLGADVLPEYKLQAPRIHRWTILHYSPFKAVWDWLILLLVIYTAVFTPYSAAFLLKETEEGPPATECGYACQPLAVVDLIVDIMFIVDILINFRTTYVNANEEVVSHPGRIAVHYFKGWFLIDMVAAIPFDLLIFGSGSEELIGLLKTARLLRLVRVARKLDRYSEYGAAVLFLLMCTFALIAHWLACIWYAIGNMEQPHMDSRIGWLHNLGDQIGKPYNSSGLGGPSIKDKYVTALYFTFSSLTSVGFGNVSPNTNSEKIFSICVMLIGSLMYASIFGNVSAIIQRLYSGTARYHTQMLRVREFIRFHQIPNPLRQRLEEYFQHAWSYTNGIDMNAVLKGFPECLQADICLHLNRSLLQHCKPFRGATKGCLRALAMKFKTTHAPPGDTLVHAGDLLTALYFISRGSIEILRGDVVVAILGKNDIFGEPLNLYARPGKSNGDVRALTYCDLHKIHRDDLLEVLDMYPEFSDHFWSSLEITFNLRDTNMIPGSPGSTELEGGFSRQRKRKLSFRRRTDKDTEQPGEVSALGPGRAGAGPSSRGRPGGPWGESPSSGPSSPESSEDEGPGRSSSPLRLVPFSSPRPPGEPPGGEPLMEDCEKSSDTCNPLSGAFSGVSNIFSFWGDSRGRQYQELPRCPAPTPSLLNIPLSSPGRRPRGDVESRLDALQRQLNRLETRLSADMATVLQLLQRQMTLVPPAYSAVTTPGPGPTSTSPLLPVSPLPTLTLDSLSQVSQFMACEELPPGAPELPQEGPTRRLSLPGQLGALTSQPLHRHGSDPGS
Some compounds, each annotated with its measured Rb efflux.
MEASUREMENT NAME: Rb efflux

| SMILES DATA | TEST RESULT |
| --- | --- |
| Fc1ccc2c(c1)nc(-c1ccccn1)n2-c1ccc(OCCCN2CCOCC2)cc1 | 62% |
| Fc1ccc2c(c1)nc(-c1ccccn1)n2-c1ccc(OCCCN2CCc3ccccc3C2)cc1 | 94% |
| OC1CCN(CCCOc2ccc(-n3c(-c4ccccn4)nc4cc(F)ccc43)cc2)CC1 | 16% |
| Fc1ccc2c(c1)nc(-c1ccccn1)n2-c1ccc(OCCCN2CCCCC2)cc1 | 70% |
| Fc1ccc2c(c1)nc(-c1ccccn1)n2-c1ccc(OCCCN2CCSC2)cc1 | 42% |
| COC(=O)C1CCN(CCCOc2ccc(-n3c(-c4ccccn4)nc4cc(F)ccc43)cc2)CC1 | 49% |

---

experiment: AUC (0 to 6 hrs) in rat at 10 mg/kg, po; format: ADME, organism-based; design: time < 6 hr, dose 10 mg/kg, route oral; settings: plasma
MEASUREMENT NAME: AUC(0-t) at 6 h

| SMILES DATA | TEST RESULT |
| --- | --- |
| Fc1ccc2c(c1)nc(-c1ccccn1)n2-c1ccc(OCCCN2CCCCC2)cc1 | 2030 ng·h/mL |

---

biological target: Histamine H3 receptor (Mus musculus)
Sequence (P58406 whole entry): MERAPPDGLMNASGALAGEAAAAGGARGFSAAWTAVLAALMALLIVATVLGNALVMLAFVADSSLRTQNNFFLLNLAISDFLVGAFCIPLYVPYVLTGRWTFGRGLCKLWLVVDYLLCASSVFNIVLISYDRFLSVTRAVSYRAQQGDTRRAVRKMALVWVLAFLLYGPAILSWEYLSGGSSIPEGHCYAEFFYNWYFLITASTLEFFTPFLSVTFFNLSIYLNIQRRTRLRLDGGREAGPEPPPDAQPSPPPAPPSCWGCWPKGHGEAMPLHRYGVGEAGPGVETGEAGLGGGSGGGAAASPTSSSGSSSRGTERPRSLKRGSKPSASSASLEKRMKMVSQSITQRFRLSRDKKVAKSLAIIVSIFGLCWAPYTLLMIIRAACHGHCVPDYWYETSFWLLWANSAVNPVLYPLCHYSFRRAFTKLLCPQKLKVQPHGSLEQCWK

| SMILES DATA | Ki [nM] |
| --- | --- |
| Fc1ccc2c(c1)nc(-c1ccccn1)n2-c1ccc(OCCCN2CCCCC2)cc1 | 1.8 |
